All values here come from PubChem BioAssay (NCI).

Quick reference: TGI of the listed items.
# System: COLO 205 colon
# assay.summary: NCI tumour cell line growth inhibition, 48 h
Value expressed in µM; do not type the unit.

mol.smiles: C=C1C(=O)O[C@H]2[C@H]1CC/C(COC(=O)OC/C1=C/CC[C@@]3(C)O[C@H]3[C@H]3OC(=O)[C@@H](CN(C)C)[C@@H]3CC1)=C\CC[C@@]1(C)O[C@@H]21
TGI / µM: 1.93

Let us move to another entry and its TGI.
Memo: `CCCCCCCCCCCCCC[n+]1ccc(C(N)=O)cc1` , reported TGI: 2.69

###

# System: MDA-MB-435
# assay.summary: NCI tumour cell line growth inhibition, 48 h
experimental.readout: TGI

Briefly, TGI measured for `NCCCNOCCCN` : > 100 µM

Given item NC(=O)CC(N)C(=O)NC(Cc1ccccc1)C(=O)NC(Cc1ccccc1)NC(=O)C(Cc1c[nH]c2ccccc12)C(=O)O (centres undefined) , the value recorded as its TGI is > 100 µM

// recorded TGI for CCCCc1ccc(Nc2nc(Cl)c3ccn(C4CC(Oc5ccc(C)cc5)C(COc5ccc(C)cc5)O4)c3n2)cc1 (centres undefined) : > 46.4 µM

TGI measured on `Cc1cc(OCCOCCC(F)(F)P(=O)(O)O)ccc1CCc1cnc2c(N)nc3cc(CCC(=O)O)ccc3c2c1` = > 100 µM

###

# Test system: HCT-15 colon
# assay.summary: NCI tumour cell line growth inhibition, 48 h
Recorded TGI values for a group of molecules are listed next.

Answered examples (10):
molecule: COc1ccc(NC(=O)c2sc3nc(C)c(C(=O)/C=C/c4cccc(OC)c4)cc3c2N)cc1
measured.target: HCT-15 colon
recorded.result: 2.42 µM

molecule: CCCCSC1=N/C(=C\c2ccc(N(C)C)cc2)C(=O)N1
measured.target: HCT-15 colon
recorded.result: > 100 µM

molecule: CCOC(=O)C12C(C(=O)OC)=C(C)N(NC(=O)Nc3ccccc3)C1(N)N(NC(=O)Nc1ccccc1)C(C)=C2C(=O)OC (stereo not given)
measured.target: HCT-15 colon
recorded.result: > 100 µM

molecule: CCC(CC)(CO)CNc1cc(Cl)nc(N)n1
measured.target: HCT-15 colon
recorded.result: > 100 µM

molecule: O=CN1N=C(c2cccc(Nc3ccnc4cc(Cl)ccc34)c2)CC1c1ccccc1 (stereo not given)
measured.target: HCT-15 colon
recorded.result: > 100 µM

molecule: O=C(OC1CN2CCC1CC2)N(c1ccccc1)c1ccccc1 (stereo not given)
measured.target: HCT-15 colon
recorded.result: > 100 µM

molecule: COC(=O)C(CC(=O)Nc1ccc(Cl)c(Cl)c1)C(=O)C(=O)Nc1ccc(Cl)c(Cl)c1 (stereo not given)
measured.target: HCT-15 colon
recorded.result: > 100 µM

molecule: Nn1c(=O)[nH]c2ncn(Cc3ccccc3)c2c1=O
measured.target: HCT-15 colon
recorded.result: > 100 µM

molecule: COc1ccc(-c2ncn(C[Si](C)(C)C)c2-c2ccc(OC)cc2)cc1
measured.target: HCT-15 colon
recorded.result: 18.3 µM

molecule: C=CCOC(=O)N1c2ccc(O)cc2[C@@]23O[C@@]24[C@@H]1C#C/C=C\C#C[C@]3(O)C(OC)(OC)C[C@@H]4C
measured.target: HCT-15 colon
recorded.result: > 100 µM

Record summary for `COc1ccc(/C(C#N)=C/c2cc(OC)c(OC)c(OC)c2)cc1` : reported TGI = > 100 µM

TGI recorded for this molecule, COC(=O)[C@@H](C)[C@H]1CC[C@@](C)(CCC2=C(C)CC3C=C(C)CCC3C2(C)C)OO1 (stereo not given in full) , is 2.82 µM

Input CCOc1ccc(NCC2CC/C(=C\c3ccccc3OC)C2=O)cc1 (stereo not given) . Output TGI: 7.82 µM

Per the record, `N/C(=N\Nc1ccc(Cl)cc1)c1cnccn1` has TGI of > 100 µM

Item: `Cn1c(-c2ccccc2)c(/C=C/C2=[N+](C)c3ccccc3C2(C)C)c2ccccc21` | TGI: 22.1 µM

###

# Tested on: MOLT-4 leukemia
# assay.summary: NCI tumour cell line growth inhibition, 48 h
experimental.readout: TGI

compound: C1CN(P2(N3CC3)=NP(N3CC3)(N3CC3)=NP(N3CC3)(N3CC3)=N2)CCO1 (stereo not given)
measured.target: MOLT-4 leukemia
TGI: > 100 µM

For `O=c1[nH]nc(Nc2ccccc2)c2nnn(C3CCCCC3)c12` the compound record lists TGI as > 100 µM

The recorded TGI for `O=S(=O)(N=NC=C1c2ccccc2N(O)c2ccccc21)c1ccc(Cl)cc1` is > 100 µM

`CCCOP(=O)(OCCC)OC(C(F)(F)F)C(F)(F)F` yielded TGI of > 100 µM

TGI measured on `O=[N+]([O-])c1cc(F)ccc1S(=O)(=O)c1ccccc1` = > 10 µM

###

# TGI annotations
# Test system: ACHN renal
# assay.summary: NCI tumour cell line growth inhibition, 48 h

See these solved cases before continuing.
mol.smiles: CCOC(=O)C(=CNC(=S)N=Nc1c(O)[nH]c2ccccc12)C(=O)OCC
measured.target: ACHN renal
TGI: > 100 µM
--
mol.smiles: CN(C)CCOc1ccc(-c2c(Oc3ccccc3)c(=O)oc3ccccc23)cc1
measured.target: ACHN renal
TGI: 24.4 µM
--
mol.smiles: COc1ccc2oc(-c3ccc(OC)c(OC)c3OC)cc(=O)c2c1
measured.target: ACHN renal
TGI: > 100 µM

Short answer for `CCOC(=O)CCN1C(=O)C(=O)N(c2ccc(OC)cc2)C1=S` : TGI was > 100 µM

###

# Test system: UACC-257 melanoma
# assay.summary: NCI tumour cell line growth inhibition, 48 h
Recorded TGI values for a group of compounds are listed next.
Number only, in µM; omit the unit.

Worked cases, answers included:
compound: CCCCc1ccc(Nc2nc(Cl)c3ccn(C4CC(Oc5ccc(C)cc5)C(COc5ccc(C)cc5)O4)c3n2)cc1 (stereo not given)
experimental.readout: TGI
recorded.result: 31.5

compound: O=C(c1ccccc1)c1c(C(F)(F)F)n([O-])c2cc(C(F)(F)F)ccc2[n+]1=O
experimental.readout: TGI
recorded.result: 3.35

compound: Cc1nc2c(cc1OCc1ccccc1)C(=O)C1=C(C2=O)C2OC(=O)CC2OC1(C)C (stereo not given)
experimental.readout: TGI
recorded.result: 1.93

compound: Cc1c(Cl)cccc1N=NC(=O)NNc1cccc(Cl)c1C
experimental.readout: TGI
recorded.result: 42.1

compound: Cc1c(C)c(C)c(-n2c(=O)n(C)c(=O)n2-c2cc(C(C)(C)C)cc(C(C)(C)C)c2O)c(C)c1C
experimental.readout: TGI
recorded.result: 23.9

compound: CC(=O)/C=C/C1=C(c2csc3ccccc23)c2ccccc2CC1
experimental.readout: TGI
recorded.result: 53.9

compound: O=C(Nc1ccc(F)cc1)Nc1ccc(Br)c(C(F)(F)F)c1
experimental.readout: TGI
recorded.result: 7.51

compound: C=C1C(=O)O[C@H]2[C@H]1CC/C(Cn1cc(-c3ccc(F)cc3)nn1)=C\CC[C@@]1(C)O[C@@H]21
experimental.readout: TGI
recorded.result: 3

compound: CCCCCCCC(=O)SCC/C=C/[C@@H]1CC(=O)NCc2nc(cs2)C2=N[C@@](C)(CS2)C(=O)N[C@@H](C(C)C)C(=O)N1
experimental.readout: TGI
recorded.result: 0.0392

compound: CCOc1ccc(C(C)c2cc3c(cc2OC)OCO3)cc1 (stereo not given)
experimental.readout: TGI
recorded.result: 52.8

The compound listed as `COc1ccc(NC(=O)c2sc3nc(C)c(C(=O)/C=C/c4cccc(OC)c4)cc3c2N)cc1` shows TGI equal to 11.7

###

# Test system: SK-MEL-5 melanoma
# assay.summary: NCI tumour cell line growth inhibition, 48 h
experimental.readout: TGI (µM)
The reply should contain only the number, in µM.

Answered cases to consult:
compound: COc1ccc(-c2ncn(C[Si](C)(C)C)c2-c2ccc(OC)cc2)cc1
TGI / µM: 10.2

compound: C=CCOC(=O)N1c2ccc(O)cc2[C@@]23O[C@@]24[C@@H]1C#C/C=C\C#C[C@]3(O)C(OC)(OC)C[C@@H]4C
TGI / µM: 27.4

Entry `O=C1C=Cc2c1ccc1ccccc21` , SK-MEL-5 melanoma data, TGI value: 71

Result for CCOC(=O)C12C(C(=O)OC)=C(C)N(NC(=O)Nc3ccccc3)C1(N)N(NC(=O)Nc1ccccc1)C(C)=C2C(=O)OC (stereo not given) , tested on SK-MEL-5 melanoma, TGI: 39.3

Sample `Cn1c(-c2ccccc2)c(/C=C/C2=[N+](C)c3ccccc3C2(C)C)c2ccccc21` , system: SK-MEL-5 melanoma. Its TGI is 1.35

Param item: `COC(=O)c1c2c(c(C)[n+]([O-])c1C)C(=O)C=C(NCc1cccc(Cl)c1)C2=O` ; param system: SK-MEL-5 melanoma; output TGI: 0.316
